Known t1/2 of a selection of compounds
- System: Liver microsome
- assay_text: Half life in rat liver microsomes in presence of NADPH
- Type: ADME

{"columns": ["compound", "target", "unit_of_measurement", "modifier_sign", "t1/2"],
 "data": [
  ["Cc1cnc(-c2ccccc2C2COC2)nc1NCc1ccc(-c2cccnc2)cc1", "Liver microsome", "min", ">", 30],
  ["Cc1cnc(-c2ccccc2C2CCC2)nc1NCc1ccc(-n2ccnn2)cc1", "Liver microsome", "min", "=", 5.1],
  ["Cc1cnc(-c2ccccc2C2CC2)nc1NCc1ccc(-c2cccnc2)cc1", "Liver microsome", "min", "=", 6.2],
  ["[2H]C([2H])(Nc1nc(-c2ccccc2C(C)C)ncc1C)c1ccc(-n2ccnn2)cc1", "Liver microsome", "min", "=", 12],
  ["[2H]C([2H])([2H])C(c1ccccc1-c1ncc(C)c(NCc2ccc(-n3ccnn3)cc2)n1)C([2H])([2H])[2H]", "Liver microsome", "min", "=", 7.9],
  ["[2H]C([2H])([2H])C([2H])(c1ccccc1-c1ncc(C)c(NC(C)(C)c2ccc(-n3ccnn3)cc2)n1)C([2H])([2H])[2H]", "Liver microsome", "min", "=", 10],
  ["Cc1cnc(-c2ccccc2C(F)F)nc1NCc1ccc(-n2ccnn2)cc1", "Liver microsome", "min", "=", 21],
  ["Cc1cnc(-c2ccccc2C(C)C)nc1NCc1ccc(-n2ccnn2)cc1", "Liver microsome", "min", "=", 15],
  ["Cc1cnc(-c2ccccc2C(C)C)nc1NCc1ccc(-c2cccnc2)cc1", "Liver microsome", "min", "=", 5.8],
  ["Cc1cnc(-c2ccccc2C2COC2)nc1NCc1ccc(-n2ccnn2)cc1", "Liver microsome", "min", ">", 30],
  ["[2H]C([2H])(Nc1nc(-c2ccccc2C([2H])(C([2H])([2H])[2H])C([2H])([2H])[2H])ncc1C)c1ccc(-n2ccnn2)cc1", "Liver microsome", "min", "=", 13],
  ["Cc1cnc(-c2ccccc2C(C)C)nc1NC(C)(C)c1ccc(-n2ccnn2)cc1", "Liver microsome", "min", "=", 22],
  ["[2H]C([2H])([2H])C([2H])(c1ccccc1-c1ncc(C)c(NCc2ccc(-n3ccnn3)cc2)n1)C([2H])([2H])[2H]", "Liver microsome", "min", "=", 9.5]
]}

This collection of values is drawn from ChEMBL document CHEMBL3352044.
